Hello, the source for this data is patent US10717716B2, in case you need it.

Molecular target: human recombinant HDAC6 (Homo sapiens, UniProt Q9UBN7)
Construct: purchased Calbiochem 382180
Test: HDAC6 enzyme activity inhibition assay (HDAC Fluorimetric Drug Discovery Kit)
Type: biochemical
Conditions: HDAC6 over HDAC1
Property: HDAC6 selectivity (fold)

[A] CS(=O)(=O)c1ccc(N(Cc2ccc(-c3nnc(C(F)(F)F)o3)cc2)C(=O)N2CCOCC2)cc1
[B] CCN1CC2(CCN(C(=O)N(Cc3ccc(-c4nnc(C(F)(F)F)o4)cc3)c3ccccc3)CC2)C1
[C] O=C(N1CC2(COC2)C1)N(Cc1ccc(-c2nnc(C(F)F)o2)cc1F)c1ccc(F)c(Cl)c1
[D] O=C(NCCN1CCC(N2CCOCC2)CC1)N(Cc1ccc(-c2nnc(C(F)F)o2)cc1F)c1ccccc1
Order the items by recorded HDAC6 selectivity (fold); the first position goes to the largest value. As an answer, provide the labels arranged in the order called for.
C, B, D, A
(C: 476 fold, B: 149 fold, D: 99 fold, A: 20 fold)

----------
Biological target: human recombinant HDAC6 (Homo sapiens)
Construct: purchased Calbiochem 382180
Assay: HDAC6 enzyme activity inhibition assay (HDAC Fluorimetric Drug Discovery Kit)
Type: biochemical
Settings: HDAC6 over HDAC1
Property: HDAC6 selectivity (fold)

The following molecules have reported results that may help.
Can you share its HDAC6 selectivity (fold)? I mean this molecule: O=C(N1CCOCC1)N(Cc1ccc(-c2nnc(C(F)F)o2)cc1F)CC12CC3CC(CC(C3)C1)C2 [Compound 21932]
15

// next record O=C(NCCN1CCN(c2ccc(F)cc2)CC1)N(Cc1ccc(-c2nnc(C(F)F)o2)cc1F)c1ccccc1 [Compound 22010]
29

Could you do the same for CN1CCN(Cc2ccc(N(Cc3ccc(-c4nnc(C(F)(F)F)o4)cc3F)C(=O)N3CCS(=O)(=O)CC3)cc2)CC1 [Compound 21515] , please?
115

For O=C(N1CCS(=O)(=O)CC1)N(Cc1ccc(-c2nnc(C(F)(F)F)o2)cc1)C1CCCC1 [Compound 21371] then?
9

Can you check O=C(N1CCOCC1)N(Cc1ccc(-c2nnc(C(F)F)o2)cc1F)c1cccc(F)c1 [Compound 21845] next?
1919

Try O=C(N1CCS(=O)(=O)CC1)N(Cc1ccc(-c2nnc(C(F)(F)F)o2)cc1F)c1ccc(-c2cccnc2)cc1 [Compound 21517] next.
31

[P] O=C(N1CCS(=O)(=O)CC1)N(Cc1ccc(-c2nnc(C(F)F)o2)cn1)c1ccc(-c2ccncc2)cc1 [Compound 21823]
[Q] CCCNC(=O)N(Cc1ccc(-c2nnc(C(F)(F)F)o2)cc1)c1ccccc1 [Compound 21354]
Among P and Q , whose measured HDAC6 selectivity (fold) is the smaller figure? Answer = label.
Q

----------
Biological target: human recombinant HDAC6 (Homo sapiens)
Construct: purchased Calbiochem 382180
Sequence (Q9UBN7 1-1215): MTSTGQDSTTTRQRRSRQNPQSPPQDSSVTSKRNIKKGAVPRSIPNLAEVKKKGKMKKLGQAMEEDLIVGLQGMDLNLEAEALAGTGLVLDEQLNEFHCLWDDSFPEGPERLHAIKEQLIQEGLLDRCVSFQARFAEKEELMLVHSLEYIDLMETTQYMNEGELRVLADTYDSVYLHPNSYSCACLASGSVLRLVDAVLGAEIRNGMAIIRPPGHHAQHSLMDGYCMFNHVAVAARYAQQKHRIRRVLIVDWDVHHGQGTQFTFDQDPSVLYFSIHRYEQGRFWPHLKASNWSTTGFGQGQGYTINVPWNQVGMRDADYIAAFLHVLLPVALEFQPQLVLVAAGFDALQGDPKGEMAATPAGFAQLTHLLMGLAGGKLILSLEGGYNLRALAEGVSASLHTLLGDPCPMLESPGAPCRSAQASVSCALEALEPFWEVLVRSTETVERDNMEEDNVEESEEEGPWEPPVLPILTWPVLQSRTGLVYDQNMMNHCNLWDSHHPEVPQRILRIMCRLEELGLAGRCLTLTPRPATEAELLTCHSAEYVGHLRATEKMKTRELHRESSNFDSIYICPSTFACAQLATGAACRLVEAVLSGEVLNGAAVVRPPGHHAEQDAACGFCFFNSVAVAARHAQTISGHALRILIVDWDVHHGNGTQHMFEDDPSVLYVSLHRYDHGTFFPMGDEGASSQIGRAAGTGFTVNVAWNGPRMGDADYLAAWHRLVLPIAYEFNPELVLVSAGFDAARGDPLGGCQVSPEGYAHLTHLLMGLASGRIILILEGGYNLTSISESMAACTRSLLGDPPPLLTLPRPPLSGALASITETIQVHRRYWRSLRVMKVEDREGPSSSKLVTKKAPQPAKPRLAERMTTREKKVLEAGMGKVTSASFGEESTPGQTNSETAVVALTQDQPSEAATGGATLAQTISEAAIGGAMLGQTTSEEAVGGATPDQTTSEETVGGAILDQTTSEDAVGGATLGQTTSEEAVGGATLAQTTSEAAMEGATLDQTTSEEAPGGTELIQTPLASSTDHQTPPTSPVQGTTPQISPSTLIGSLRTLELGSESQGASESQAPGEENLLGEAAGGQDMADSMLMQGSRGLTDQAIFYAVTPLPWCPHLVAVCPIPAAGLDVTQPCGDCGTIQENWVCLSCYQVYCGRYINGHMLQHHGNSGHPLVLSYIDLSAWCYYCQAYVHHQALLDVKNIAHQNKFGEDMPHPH
Experiment: HDAC6 enzyme activity inhibition assay (HDAC Fluorimetric Drug Discovery Kit)
Assay type: biochemical
Conditions: human recombinant HDAC6, same protocol as HDAC1; read-out: HDAC6
Property: IC50 (nM)

Study these solved cases before continuing.
IC50 of O=C(NCCN1CCN(Cc2ccccc2)CC1)N(Cc1ccc(-c2nnc(C(F)F)o2)cc1F)c1ccccc1 on human recombinant HDAC6 (Homo sapiens)?
197

Would you mind doing COc1cccc(N(Cc2ccc(-c3nnc(C(F)F)o3)cc2F)C(=O)N2CCN(C)CC2)c1 as well?
32

[I] Cc1cccc(N(Cc2ccc(-c3nnc(C(F)F)o3)cc2F)C(=O)N2CCS(=O)(=O)CC2)c1
[II] CCN1CCN(C(=O)N(Cc2ccc(-c3nnc(C(F)F)o3)cc2F)c2cccc(Cl)c2F)CC1
Could you tell me which of these two has the smaller IC50 figure? First: I Second: II State your choice using its label.
I

----------
Target: human recombinant HDAC6 (Homo sapiens, UniProt Q9UBN7)
Construct: purchased Calbiochem 382180
Experiment: HDAC6 enzyme activity inhibition assay (HDAC Fluorimetric Drug Discovery Kit)
Type: biochemical
Settings: human recombinant HDAC6, same protocol as HDAC1; read-out: HDAC6
pIC50: −log10 of the molar value.
Property: pIC50

Give its pIC50 value. Item: Cc1ccc(N(Cc2ccc(-c3nnc(C(F)F)o3)cc2)C(=O)N2CCS(=O)(=O)CC2)cc1
7.06

[1] CN(C)[C@@H]1CCN(C(=O)N(Cc2ccc(-c3nnc(C(F)F)o3)cn2)c2ccc(F)c(Cl)c2)C1
[2] Cc1ccccc1N(Cc1ccc(-c2nnc(C(F)F)o2)cc1)C(=O)N1CCS(=O)(=O)CC1
[3] O=C(N1CCS(=O)(=O)CC1)N(Cc1ccc(-c2nnc(C(F)(F)F)o2)cc1F)c1ccc(F)c(Cl)c1
Write the entries in order, lowest recorded pIC50 first. Please, when replying, give the labels in the order that was requested.
2, 3, 1

----------
Biological target: human recombinant HDAC6 (Homo sapiens, UniProt Q9UBN7)
Construct: purchased Calbiochem 382180
Assay: HDAC6 enzyme activity inhibition assay (HDAC Fluorimetric Drug Discovery Kit)
Format: biochemical
Settings: HDAC6 over HDAC1
Property: HDAC6 selectivity (fold)

As a guide, the following entries are already answered.
So what does the record say about HDAC6 selectivity (fold) for O=C(N1CCS(=O)(=O)CC1)N(Cc1ccc(-c2nnc(C(F)F)o2)cc1F)c1cccc(F)c1 [Compound 21807] ?
256

Field entry: O=C(N1CCS(=O)(=O)CC1)N(Cc1ccc(-c2nnc(C(F)(F)F)o2)cc1)c1cccc(F)c1 [Compound 21392]
65

Item: O=C(N1CCC1)N(Cc1ccc(-c2nnc(C(F)(F)F)o2)cc1)c1ccccc1 [Compound 21349]
23

[A] COc1cccc(N(Cc2ccc(-c3nnc(C(F)F)o3)cc2F)C(=O)N2CCN(C)CC2)c1 [Compound 21473]
[B] CN1CCN(c2cccc(N(Cc3ccc(-c4nnc(C(F)F)o4)cn3)C(=O)N3CCS(=O)(=O)CC3)c2)CC1 [Compound 21627]
[C] Cn1ncc2ccc(N(Cc3ccc(-c4nnc(C(F)(F)F)o4)cc3F)C(=O)N3CCS(=O)(=O)CC3)cc21 [Compound 21545]
[D] O=C(N1CCOCC1)N(Cc1ccc(-c2nnc(C(F)(F)F)o2)cc1)c1cccc(C(F)(F)F)n1 [Compound 21408]
Please give the order of these compounds when sorted by HDAC6 selectivity (fold), largest value leading. As an answer, provide the labels arranged in the order called for.
A, C, B, D

----------
Target: human recombinant HDAC6 (Homo sapiens)
Construct: purchased Calbiochem 382180
Sequence (Q9UBN7 1-1215): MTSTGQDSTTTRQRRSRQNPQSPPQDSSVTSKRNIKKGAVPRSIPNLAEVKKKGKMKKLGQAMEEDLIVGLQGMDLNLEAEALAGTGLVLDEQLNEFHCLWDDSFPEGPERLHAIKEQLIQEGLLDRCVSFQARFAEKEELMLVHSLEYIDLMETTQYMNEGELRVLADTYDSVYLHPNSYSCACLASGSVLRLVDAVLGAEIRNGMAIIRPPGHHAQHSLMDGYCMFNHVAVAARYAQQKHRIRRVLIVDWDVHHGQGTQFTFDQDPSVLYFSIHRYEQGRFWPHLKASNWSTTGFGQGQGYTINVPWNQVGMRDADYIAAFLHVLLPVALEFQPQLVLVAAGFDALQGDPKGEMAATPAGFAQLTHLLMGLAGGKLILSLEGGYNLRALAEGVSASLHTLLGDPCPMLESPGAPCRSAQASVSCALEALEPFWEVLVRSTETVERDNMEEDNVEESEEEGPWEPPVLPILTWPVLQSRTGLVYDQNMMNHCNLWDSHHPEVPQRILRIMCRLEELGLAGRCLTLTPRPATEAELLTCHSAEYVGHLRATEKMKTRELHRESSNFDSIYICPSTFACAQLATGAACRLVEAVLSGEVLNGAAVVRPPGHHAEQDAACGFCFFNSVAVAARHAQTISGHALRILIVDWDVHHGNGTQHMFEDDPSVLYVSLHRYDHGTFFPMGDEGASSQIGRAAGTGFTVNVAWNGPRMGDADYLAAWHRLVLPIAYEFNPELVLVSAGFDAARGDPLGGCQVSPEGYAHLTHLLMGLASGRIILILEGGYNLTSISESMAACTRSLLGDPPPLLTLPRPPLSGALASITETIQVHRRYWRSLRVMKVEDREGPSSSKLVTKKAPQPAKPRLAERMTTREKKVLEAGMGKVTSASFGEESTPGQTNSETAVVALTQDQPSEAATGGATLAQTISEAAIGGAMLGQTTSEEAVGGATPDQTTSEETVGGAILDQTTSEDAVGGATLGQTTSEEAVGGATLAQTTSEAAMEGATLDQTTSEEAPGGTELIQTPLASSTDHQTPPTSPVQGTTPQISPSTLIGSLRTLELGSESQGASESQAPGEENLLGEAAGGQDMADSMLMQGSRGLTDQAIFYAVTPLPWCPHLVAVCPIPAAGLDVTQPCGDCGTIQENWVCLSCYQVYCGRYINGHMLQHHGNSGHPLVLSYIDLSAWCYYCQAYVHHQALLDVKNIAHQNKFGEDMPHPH
Test: HDAC6 enzyme activity inhibition assay (HDAC Fluorimetric Drug Discovery Kit)
Type: biochemical
Conditions: HDAC6 over HDAC1
Property: HDAC6 selectivity (fold)

Reference set, count: 4
Which HDAC6 selectivity (fold) is listed for O=C(N1CCN(C(=O)C(F)(F)F)CC1)N(Cc1ccc(-c2nnc(C(F)(F)F)o2)cc1)c1ccccc1 ?
43

Another: O=C(N1CCS(=O)(=O)CC1)N(Cc1ccc(-c2nnc(C(F)(F)F)o2)cc1)c1ccc(-c2ccccc2)cc1
12

Would you kindly repeat that for O=C(N1CCOCC1)N(Cc1ccccc1)Cc1ccc(-c2nnc(C(F)(F)F)o2)cc1 ?
7

Input COc1ccccc1CCN(Cc1ccc(-c2nnc(C(F)F)o2)cc1F)C(=O)N1CCOCC1
41

[I] O=C(N1CCS(=O)(=O)CC1)N(Cc1ccc(-c2nnc(C(F)F)o2)cc1F)c1cccc(Cl)c1
[II] CC(C)(C)OC(=O)N(Cc1ccc(-c2nnc(C(F)F)o2)cc1)c1ccccc1
I would appreciate it if you could say which entry, I or II , has the lower HDAC6 selectivity (fold) value. Refer to your chosen item by its label in the answer.
II
(II: 42 fold, I: 883 fold)
